Give log10 MIC for every item shown.
# Test system: Staphylococcus aureus
# assay_info: Antimicrobial activity against Staphylococcus aureus ATCC 25923 after overnight incubation by broth microdilution method
# Assay type: functional
Please be aware that the numbers have been log10-transformed from MIC in µM.

substance	log10 MIC
H-FRRWWKWFK-OH	0.18

Fill in log10 MIC for each of the 8 substances listed.
1. H-AIRRWRIRK-OH
2. H-RLARIVVIRVAR-OH
3. H-AWRFKNIRK-OH
4. H-WRWWKIWKR-OH
5. H-RKWIWRWFL-OH
6. H-WKRWWKKWR-OH
7. H-KWKIFRRWW-OH
8. H-WKKWWKRRW-OH

1. 1.73
2. 1.38
3. 2.35
4. 0.48
5. 0.49
6. 0.76
7. 0.49
8. 0.15
